This collection of values is drawn from ChEMBL document CHEMBL4177578.

Test system: U-937
experimentDescription: Anti-inflammatory activity in human U937 cells assessed as inhibition of LPS-induced TNFalpha production pre-incubated for 1 hr before LPS stimulation for 24 hrs by ELISA method
Assay type: functional, cell-based
pIC50: −log10 of the molar value.
Parameter pIC50: see the listing below.

structureString	pIC50
COc1ccc(-c2nn(-c3ccccc3)cc2CO)cc1	4.45
Cc1ccc(-n2cc(Cn3cc(CO)nn3)c(-c3ccccc3)n2)cc1C	4.76
OCc1cn(Cc2cn(-c3ccccc3)nc2-c2ccccc2)nn1	4.45

---

experimentDescription: Anti-inflammatory activity using bovine serum albumin and egg albumin proteins incubated at 37 degC for 20 mins and then heated to 95 degC for 20 mins by UV-visible Spectrophotometry based protein denaturation method
Format: functional
observedProperty: IC50

structureString	observedProperty	resultValue
Nc1ccc(-c2cn(Cc3cn(-c4ccccc4)nc3-c3ccccc3)nn2)cc1	IC50	Not Active
COC(=O)c1nnn(Cc2cn(-c3ccc(Cl)cc3)nc2-c2ccccc2)c1C(=O)OC	IC50	Not Active
Cc1ccc(-c2nn(-c3ccccc3)cc2CO)cc1	IC50	61.05 µg/mL
COc1ccc(-c2nn(-c3ccccc3)cc2Cn2cc(CO)nn2)cc1	IC50	58 µg/mL
c1ccc(-c2cn(Cc3cn(-c4ccccc4)nc3-c3ccccc3)nn2)cc1	IC50	Not Active
OCc1cn(Cc2cn(-c3ccccc3)nc2-c2ccccc2)nn1	IC50	128.89 µg/mL
Cc1ccc(-n2cc(Cn3cc(CO)nn3)c(-c3ccccc3)n2)cc1	IC50	59.79 µg/mL
FC(F)(F)c1ccccc1-c1cn(Cc2cn(-c3ccccc3)nc2-c2ccccc2)nn1	IC50	Not Active
Cc1ccc(-n2cc(CO)c(-c3ccccc3)n2)cc1C	IC50	59.79 µg/mL
Cc1ccc(-c2nn(-c3ccccc3)cc2CN=[N+]=[N-])cc1	IC50	Not Active
Cc1ccc(-n2cc(CN=[N+]=[N-])c(-c3ccccc3)n2)cc1	IC50	Not Active
Clc1ccc(-c2nn(-c3ccccc3)cc2Cn2cc(-c3ccccc3)nn2)cc1	IC50	Not Active
CCOC(=O)c1nnn(Cc2cn(-c3ccc(C)cc3)nc2-c2ccccc2)c1C(=O)OCC	IC50	Not Active
[N-]=[N+]=NCc1cn(-c2ccccc2)nc1-c1ccc(Cl)cc1Cl	IC50	Not Active
Cc1ccc(-c2cn(Cc3cn(-c4ccccc4)nc3-c3ccccc3)nn2)cc1	IC50	Not Active
CCOC(=O)c1nnn(Cc2cn(-c3ccccc3)nc2-c2ccc(OC)cc2)c1C(=O)OCC	IC50	Not Active
COc1ccc(-c2nn(-c3ccccc3)cc2CO)cc1	IC50	105.45 µg/mL
